# Assay Comment: Toxicity liver stage against HepG2, at 10uM
# Assay type: cell-based
# Parameters: test concentration 10 uM, cell line HepG2-A16-CD81EGFP
# Setup Conditions: human, HepG2-A16-CD81EGFP cells; read-out: INHIBITION
Mark 0 for cytotoxicity at 10 µM values under -20%, and 1 for everything at or above.

- Compound: "Cc1cc2nccc(C3CCN(C(=O)c4ccccc4F)CC3)n2n1"
  Label Class: 1
- Compound: "Cc1cc(C(N)=O)ccc1NC(=O)N1CCN(c2cccs2)CC1"
  Label Class: 1
- Compound: "Cn1cc(CN2CCCC23CCN(S(C)(=O)=O)CC3)cn1"
  Label Class: 0
- Compound: "O=C(C1CCS(=O)(=O)CC1)N1CCC(c2ccc(F)cc2)C1 (configuration not stated)"
  Label Class: 0
- Compound: "O=C(c1ncccn1)N1CCC[C@]2(C[C@@H](OCC3CC3)CO2)C1"
  Label Class: 0
- Compound: "c1cc(CO[C@H]2CC[C@H]3[C@H]2OCCN3Cc2nccs2)ccn1"
  Label Class: 0
- Compound: "Cc1ccc(CNC(=O)Nc2nncs2)n1C"
  Label Class: 1
- Compound: "O=C(O)[C@@]12CN(c3cnccn3)C[C@@H]1CN(C1CCOCC1)C2"
  Label Class: 1
- Compound: "CN(C)Cc1ccc(C2CCCCN2C(=O)c2cccc(CO)n2)cc1 (configuration not stated)"
  Label Class: 1
- Compound: "CC(C)c1cn(CC(=O)NC2CC(=O)N(CCc3ccccc3)C2)nn1 (configuration not stated)"
  Label Class: 1
- Compound: "COCc1cc(N2CCc3onc(-c4cccc(OC)c4)c3C2)ncn1"
  Label Class: 1
- Compound: "COCCNc1ccc(CC2CCCNC2)cn1 (configuration not stated)"
  Label Class: 1
- Compound: "O=C(NCc1ccc2c(c1)OCO2)c1ccccc1C1CCNC1 (configuration not stated)"
  Label Class: 1
- Compound: "CNC(=O)C1CCN(C(=O)NCc2ccc(-c3ccn[nH]3)cc2)CC1"
  Label Class: 1
- Compound: "CCCC(NC(=O)c1occc1C)c1nnn[nH]1 (configuration not stated)"
  Label Class: 1
- Compound: "N#Cc1c(N2CCCCC2)nsc1-c1cccnc1"
  Label Class: 1
- Compound: "CCOCC1CN(S(=O)(=O)c2ccccc2)Cc2nccn2C1 (configuration not stated)"
  Label Class: 0
- Compound: "Cn1cc(-c2nc(CN3CCN(c4nccs4)CC3)cs2)cn1"
  Label Class: 1
- Compound: "O=C(O)C(c1cccc2c1OCC2)N1CCC(N2CCCC2)CC1 (configuration not stated)"
  Label Class: 1
- Compound: "CN(C)Cc1noc2c1CN(C(=O)c1ccncc1)CC2"
  Label Class: 1
- Compound: "CC(C)C(C)(C#N)NC(=O)Cn1cc(-c2ccccc2)cn1 (configuration not stated)"
  Label Class: 1
- Compound: "CN1CC(=O)N(c2ccccc2)CC12CCN(C(=O)c1cnccn1)C2 (configuration not stated)"
  Label Class: 1

---

# Assay Comment: Toxicity liver stage against HepG2, at 10uM
# Assay type: cell-based
# Set-up: test concentration 10 uM, cell line HepG2-A16-CD81EGFP
# Setup Conditions: human, HepG2-A16-CD81EGFP cells; read-out: INHIBITION

- Compound: "COc1ccc(S(=O)(=O)NC(=O)COC2CCCCC2)cc1"
  cytotoxicity at 10 µM (%): -1.64
- Compound: "c1cc2c(cc1CN1C[C@@H]3COC[C@@H](N4CCCC4)[C@@H]3C1)OCO2"
  cytotoxicity at 10 µM (%): 4.62
- Compound: "Cc1ccc2nc(CN3CCCCC3C(=O)N3CCOCC3)cn2c1 (stereo not given)"
  cytotoxicity at 10 µM (%): 3.13
- Compound: "CN(C)C(=O)c1cnc(-c2ccc3c(c2)OCO3)s1"
  cytotoxicity at 10 µM (%): 5.29
- Compound: "O=C(O)CCCc1ccc2c(c1)CC(=O)N2"
  cytotoxicity at 10 µM (%): 1.51
- Compound: "CN1CCCC1c1cncc(C(=O)NCc2ccccc2)n1 (stereo not given)"
  cytotoxicity at 10 µM (%): -1.67
- Compound: "O=C(NCc1ccco1)N1CCOC(c2ccccc2Cl)C1 (stereo not given)"
  cytotoxicity at 10 µM (%): -1.91
- Compound: "O=C(C1CCOC1)N1CCc2ncnc(C3CC3)c2CC1 (stereo not given)"
  cytotoxicity at 10 µM (%): -2.62
- Compound: "CCNC(=O)c1cc2n(n1)CCCO2"
  cytotoxicity at 10 µM (%): 1.25
- Compound: "COc1ccc(NC(=O)c2cnc(N(C)C3CCCCC3)nc2N)cc1"
  cytotoxicity at 10 µM (%): -3.64
- Compound: "CCn1cc(NS(=O)(=O)c2ccc(F)cc2)c(C(=O)NCC(C)C)n1"
  cytotoxicity at 10 µM (%): 6.6
- Compound: "CC(NC(=O)N1CCC2(C1)OCCO2)c1ccc(F)cc1Cl (stereo not given)"
  cytotoxicity at 10 µM (%): -5.16
- Compound: "CN(C)C(=O)CN1CCC2(CCN(C(=O)N3CCCC3)CC2)C1=O"
  cytotoxicity at 10 µM (%): 2.7
- Compound: "COCCNC(=O)NCCc1cccc(OC)c1O"
  cytotoxicity at 10 µM (%): 9.31
- Compound: "CN(CCn1nc2ccccn2c1=O)CC(=O)N1CCCC1"
  cytotoxicity at 10 µM (%): 7.08
- Compound: "CCCNC(=O)c1cc2c(nc1O)CCC(C)C2 (stereo not given)"
  cytotoxicity at 10 µM (%): 0.717
- Compound: "Cc1nc(CNC(=O)Nc2cc(C(F)(F)F)c[nH]c2=O)cs1"
  cytotoxicity at 10 µM (%): 0.868
- Compound: "CC(O)CN1CCc2[nH]nc(C(c3ccccc3)c3ccccc3)c2C1 (stereo not given)"
  cytotoxicity at 10 µM (%): -0.481
- Compound: "CN(C)Cc1cnc(CC2CCN(CCc3ccccc3)CC2)cn1"
  cytotoxicity at 10 µM (%): -6.07
- Compound: "Cn1ccnc1CNC(=O)N(CCCO)C1CCCc2ccccc21 (stereo not given)"
  cytotoxicity at 10 µM (%): -6.19
- Compound: "Cc1nn(CC(F)F)c2c1c(C(F)F)cc(=O)n2CC(=O)O"
  cytotoxicity at 10 µM (%): 2.84
- Compound: "CN(C1CCN(C(=O)NCCc2ccc(F)cc2F)CC1)S(C)(=O)=O"
  cytotoxicity at 10 µM (%): 12.3
- Compound: "Nc1nccnc1C1CN(C(=O)c2ccnnc2)CCO1 (stereo not given)"
  cytotoxicity at 10 µM (%): 9.48
- Compound: "CCCc1noc(C(C)N2CCN(Cc3nc(C)c(C)o3)CC2)n1 (stereo not given)"
  cytotoxicity at 10 µM (%): -10.6
- Compound: "CC1CCCCN1c1nc2c(c(=O)[nH]1)CCN(Cc1ccccc1F)C2 (stereo not given)"
  cytotoxicity at 10 µM (%): -4.39
- Compound: "COc1ccccc1CCN[C@@H]1c2ccccc2C2(CCNCC2)[C@H]1O"
  cytotoxicity at 10 µM (%): 5.79
- Compound: "CCN1CCOCC12CCN(C(=O)C1CCC1)CC2"
  cytotoxicity at 10 µM (%): -1.39
- Compound: "CN(CC(O)C(F)(F)F)C(=O)Nc1cccc(Cn2cccn2)c1 (stereo not given)"
  cytotoxicity at 10 µM (%): 5.79
- Compound: "Cc1cccc(CN2CC[C@H]3CO[C@H](CNC(=O)N(C)C)[C@H]3C2)c1"
  cytotoxicity at 10 µM (%): 1.47
- Compound: "CCOCC1CCCN(C(=O)NCc2cn3c(C)cccc3n2)C1 (stereo not given)"
  cytotoxicity at 10 µM (%): 12.8
- Compound: "Fc1cnc(N2CCOC3(CCN(Cc4cccs4)CC3)C2)nc1"
  cytotoxicity at 10 µM (%): 0.73
- Compound: "COCCCC1(C(=O)O)CCCN(Cc2cc3c(cc2C)OCCO3)C1 (stereo not given)"
  cytotoxicity at 10 µM (%): -2.3
- Compound: "CC(C)c1nnc(NC(=O)CSCc2cc(=O)n3ccccc3n2)s1"
  cytotoxicity at 10 µM (%): 2.08
- Compound: "COc1ccc(CN(Cc2ccccn2)Cc2cncn2C)cc1"
  cytotoxicity at 10 µM (%): 9.65
- Compound: "COc1ccc2cccc(CC(=O)NCCCc3n[nH]c(C)n3)c2c1"
  cytotoxicity at 10 µM (%): -2.11
